# protocol.notes: P. aeruginosa biofilm formation inhibitors, primary screen, PAO1 strain, BacTiter-Glo luminescence, LB-PBS (AID 1144)
# test.parameters: 12 h, higher = more signal
Listing of entries alongside the reported z-score.
I only need the number, thanks.

Worked cases, z-score given:
COCCOC(=O)N1C(=O)[C@@]2(c3cc(C#CCC(C(=O)OC)C(=O)OC)ccc31)[C@H](C(=O)N1CCc3cc(OC)c(OC)cc3C1)[C@H]1C(=O)O[C@H](c3ccccc3)[C@H](c3ccccc3)N1[C@@H]2c1ccccc1OCCO :: -0.893
CCOC(=O)C[C@H]1[C@H](OC(=O)Cc2ccc3c(c2)OCO3)[C@@H](NC(=O)CC(C)C)c2cc(OCCCO)ccc2N1C(=O)c1ccc2ccccc2n1 :: 0.0536

Q: Which z-score is listed for C[C@H]1C2[C@H](Cc3ccccc3)NC(=O)[C@]23C(=O)N[C@@H](Cc2ccccc2)C(=O)N2CCC[C@H]2C(=O)NC/C=C/CC/C=C/C3[C@@H]2O[C@]12C (some centres undefined) ?
A: -0.165

Q: What does the data say about its z-score? Entry: C=C(C(=O)CC[C@@H](OC(=O)c1ccccc1-c1ccccc1C(=O)O)c1cccc(OCCO)c1)C(C)C
A: -0.417

---

# protocol.notes: binders of probe aFST on microarray, primary screen, stem cell growth factor project, biochemical, small-molecule microarray, fluorescence 635/667 (AID 1086);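 note: score merges 667 nm fluorescence with signal-to-noise of each printed compound spot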
# test.parameters: higher = more signal
Label yes when composite z-score is at or above 0.2; anything below gets no.

See these solved cases before continuing.
C[C@]1(C(=O)O)c2ccccc2C(=O)N(Cc2cc(C(F)(F)F)cc(C(F)(F)F)c2)[C@H]1c1ccc(CO)cc1 :: no
C=CCNC(=O)[C@H]1[C@@H]2C(=O)O[C@@H](c3ccccc3)[C@@H](c3ccccc3)N2[C@@H](c2ccc(OCCO)cc2)[C@]12C(=O)N(C(=O)OCCOC)c1ccc(C#CCC(C(=O)OC)C(=O)OC)cc12 :: yes
COc1cc(Cc2cc3c(c(CCc4ccccc4)n2)[Si](C(C)C)(C(C)C)O[C@H]3c2ccccc2)cc(OC)c1OC :: no
C=C(COC)/C(=C/C[C@@H](OC(C)=O)c1cccc(OCCO)c1)c1cnc2ccccc2c1 :: no
COCCOC(=O)N1C(=O)[C@@]2(c3cc(C#CC4(O)CCCCCC4)ccc31)[C@H](C(N)=O)[C@H]1C(=O)O[C@H](c3ccccc3)[C@H](c3ccccc3)N1[C@@H]2c1ccc(OCCO)cc1 :: yes
CCCCCN1CC=CC23O[C@@H]4/C=C\CCCOC(=O)C4[C@H]2C(=O)N(CCO)[C@@H]3C1=O (some centres not stated) :: no

Q: Exam item: decide whether the reported composite z-score for O=C1N(Cc2ccccc2)c2ccccc2C[C@@]12N=C(c1ccc(OCCCO)cc1)O[C@H]2c1ccccc1 is at least 0.2.
A: no

---

# System: Human papillomavirus type 1a E7 protein (residues 1-88)
# protocol.notes: HPV1a E7 small-molecule binders, primary screen, biochemical, small-molecule microarray, residues 1-88, 635 nm (AID 1129)
# test.parameters: small-molecule microarray binding, fluorescence 635 nm; higher = more signal
Recorded composite z-score for the following compounds
Note: the reply should be a number with no unit written.

C=CCN1C(=O)[C@]2(O[C@H](CCO)[C@@H]([Si](C)(C)c3ccc(OC)cc3)[C@@H]2C)c2cc(N3C(=O)c4ccccc4Oc4ccccc43)ccc21 :: 1.14
C=CC[C@]12N=C(c3ccc(OCCCO)cc3)O[C@H]1c1ccccc1N(CCC)C2=O :: 0.917
CC(C)c1ccc(NN2C(C(O)C3CCCCC3)C=CC3C(=O)N(c4ccccc4)C(=O)C32)cc1 (configuration not stated) :: 1.21
O=C1O[C@@H](c2ccccc2)[C@@H](c2ccccc2)N2[C@@H](c3ccccc3OCCO)[C@]3(C(=O)Nc4ccc(C#CC5(O)CCCCCC5)cc43)[C@@H](C(=O)N3CCCCCCC3)[C@H]12 :: 1.27

Q: Entry O=C(c1ccccc1)N1Cc2ccccc2C[C@@]2(N=C(c3ccc(OCCCO)cc3)O[C@H]2c2ccccc2)C1=O has what composite z-score?
A: 1.21

Q: What value of composite z-score has been recorded for this entry: CCOC(=O)C1=CCC(c2ccncc2)N(S(=O)(=O)c2ccc(C)cc2)C1 (configuration not stated)
A: 1.25

Q: Requested field: composite z-score. Item: CN1C(=O)C2C=CC(C(O)COCc3ccccc3)N(Nc3ccc([N+](=O)[O-])cc3[N+](=O)[O-])C2C1=O (configuration not stated)
A: 1.08
